- System name: T1, human IL-17C (human, UniProt Q9P0M4 19-197)
- T1 construct: expressed in E. coli; also called hIL-17C
- T1 sequence (looked up): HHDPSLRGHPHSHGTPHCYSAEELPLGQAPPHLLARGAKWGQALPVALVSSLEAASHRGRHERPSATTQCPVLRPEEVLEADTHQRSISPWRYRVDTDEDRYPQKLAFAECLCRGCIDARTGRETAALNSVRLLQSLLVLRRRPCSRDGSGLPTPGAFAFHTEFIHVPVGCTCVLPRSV
- Assay text: SPR, cytokine on chip
Quantity measured: binding result

- Binder: "06E11 (VHH, Class 3) VHH: EVQLVESGGGLVQAGGSLRLSCPVSGRAFSRGRLGWFRQAPGKEREFVAVAHWSGAITSYADSVKGRFTFSRDNAKNTMNLQMNSLKPEDTAVYYCAADSETSGNWVYWGQGTQVTVSS"
  Quantity measured: "binding result"
  Observed: "no binding"
- Binder: "01A01 (VHH, Class 4) VHH: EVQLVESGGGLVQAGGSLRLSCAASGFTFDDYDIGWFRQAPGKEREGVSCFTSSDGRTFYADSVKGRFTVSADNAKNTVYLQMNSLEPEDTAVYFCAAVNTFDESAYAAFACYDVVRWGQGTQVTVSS"
  Quantity measured: "binding result"
  Observed: "no binding"
- Binder: "24G10 (VHH, Class 3) VHH: EVQLVESGGGLVQAGGSLRLSCGAAGGTFSSYATGWFRQAPGKEREFVAVFRWSDSHTAYADSVKGRFTISRDGAKNTLYLQMSSLKPEDTAIYYCTTATRPGEWDYWGQGTQVTVSS"
  Quantity measured: "binding result"
  Observed: "no binding"
- Binder: "11C08 (VHH, Class 4) VHH: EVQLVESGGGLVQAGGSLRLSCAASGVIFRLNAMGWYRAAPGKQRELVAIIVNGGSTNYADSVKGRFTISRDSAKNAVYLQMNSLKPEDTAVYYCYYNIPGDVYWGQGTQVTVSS"
  Quantity measured: "binding result"
  Observed: "no binding"
